pIC50: −log10 of the molar value.
Reported values: pIC50 for TRK A (Homo sapiens (Human), UniProt P04629), one per item.

- SMILES_INPUT: "C[C@@H]1CCc2ncc(F)cc2[C@H]2[C@@H]3C[C@@H]3CN2c2ccn3ncc(c3n2)C(=O)N1"
  ASSAY_TARGET: "TRK A (Homo sapiens (Human), UniProt P04629)"
  RESULT: "> 7.00"
- SMILES_INPUT: "C=C1c2ncc(F)cc2[C@@H]2CCCN2c2ccn3ncc(c3n2)C(=O)N[C@@H]1C"
  ASSAY_TARGET: "TRK A (Homo sapiens (Human), UniProt P04629)"
  RESULT: "< 6.00"
- SMILES_INPUT: "C[C@@H]1/C=C\\c2ncc(F)cc2[C@H]2CCCN2c2ccn3ncc(c3n2)C(=O)N1"
  ASSAY_TARGET: "TRK A (Homo sapiens (Human), UniProt P04629)"
  RESULT: "> 7.00"

Task: Find pIC50 (TRK A (Homo sapiens (Human), UniProt P04629)) for the entry C[C@@H]1CCc2ncc(F)cc2[C@H]2CCCN2c2ccc3ncc(n3n2)C(=O)N1
Output: > 7.00

Task: Find pIC50 (TRK A (Homo sapiens (Human), UniProt P04629)) for the entry C[C@@H]1CCc2ncc(F)cc2[C@@H]2[C@@H]3[C@H](CN2c2ccn4ncc(c4n2)C(=O)N1)C3(C)C
Output: < 6.00

Task: Find pIC50 (TRK A (Homo sapiens (Human), UniProt P04629)) for the entry C[C@@H]1CCOc2ncc(F)cc2N2CCCN2c2ccn3ncc(c3n2)C(=O)N1
Output: > 7.00

Task: Find pIC50 (TRK A (Homo sapiens (Human), UniProt P04629)) for the entry C[C@@H]1/C=C\c2ncc(F)cc2[C@@H]2CCCN2c2ccn3ncc(c3n2)C(=O)N1
Output: 6.00 to 7.00

----------
pIC50: −log10 of the molar value.
Reported values: pIC50 for TRK A (Homo sapiens (Human)), one per item.

Below: 5 molecules and their reported pIC50.
- MOLECULE: "C[C@@H]1/C=C/c2ncc(F)cc2[C@H]2CCCN2c2ccn3ncc(c3n2)C(=O)N1 [Compound 9-7]"
  pIC50: "> 7.00"
- MOLECULE: "C[C@H]1CNC(=O)c2cnn3ccc(nc23)N2C[C@@H]3C[C@@H]3[C@H]2c2cc(F)cnc2O1 [Compound 22-7]"
  pIC50: "< 6.00"
- MOLECULE: "C[C@@H]1CCc2ncc(F)cc2N2CCC[C@H]2c2ccn3ncc(c3n2)C(=O)N1 (single isomer, unassigned) [Compound 16-10]"
  pIC50: "< 6.00"
- MOLECULE: "C[C@@H]1CCc2ncc(F)cc2[C@H]2[C@H]3[C@@H](CN2c2ccn4ncc(c4n2)C(=O)N1)C3(C)C [Compound 24-10]"
  pIC50: "> 7.00"
- MOLECULE: "C[C@H]1CNC(=O)c2cnn3ccc(nc23)N2C[C@H]3C[C@H]3[C@@H]2c2cc(F)cnc2O1 [Compound 22-6]"
  pIC50: "> 7.00"

Task: Find pIC50 (TRK A (Homo sapiens (Human))) for the entry C[C@@H]1CCc2ncc(F)cc2N2CCC(=O)N2c2ccn3ncc(c3n2)C(=O)N1 [Compound 5-6]
Output: 6.00 to 7.00

Task: Find pIC50 (TRK A (Homo sapiens (Human))) for the entry C[C@@H]1CCc2ncncc2[C@@H]2CCCN2c2ccc3ncc(n3n2)C(=O)N1 [Compound 13-12]
Output: 6.00 to 7.00
